# Tested on: ATRA 4-hydroxylase (CYP) activity
# Assay Details: in vitro
# Condition Summary: pig, pH 7.4
Endpoint Name: IC50 at 90 min
Answers without a unit are incomplete; give the number and then its unit.

Req: IC50 at 90 min lookup needed for `Cc1nccn1Cc1ccccc1` , thanks.
Resp: 308 µM

Req: Then what about the compound `c1ccc(-c2nc[nH]c2-c2ccccc2)cc1` ?
Resp: 100 µM

###

# Test system: ATRA 4-hydroxylase (CYP) activity
# Assay Details: in vitro
# Condition Summary: pig, pH 7.4
Assign IC50 to each entry below.
Give just the numeric value; µM need not be written.

Req: // returns reported IC50 for input `c1ccc(-n2ccnc2)cc1`
Resp: 52.5

Req: Entry `c1ccc(Cn2ccnc2)cc1` please
Resp: 77.5
